Let's look at some compounds and their measured TGI.
Test system: UACC-257
Experiment: Anticancer activity against human UACC-257 cells assessed as total cell growth inhibition incubated for 48 hrs by SRB assay
Assay type: functional

substance.smiles: COc1cc2cc(Oc3ccc(NC(=O)Nc4ccc(F)c(C(F)(F)F)c4)cc3)c(C)nc2cc1OCCN1CCOCC1
endpoint.unit: µM
TGI: 5.18
--
substance.smiles: COc1cc2cc(Oc3ccc(NC(=O)Nc4ccc(Cl)c(C(F)(F)F)c4)cc3)c(C)nc2cc1OCCN1CCOCC1
endpoint.unit: µM
TGI: 4.55
--
substance.smiles: CNC(=O)c1cc(Oc2ccc(NC(=O)Nc3ccc(Cl)c(C(F)(F)F)c3)cc2)ccn1
endpoint.unit: µM
TGI: 5.01
--
substance.smiles: COc1cc2cc(Oc3ccc(NC(=O)Nc4cc(C(F)(F)F)cc(C(F)(F)F)c4)cc3)c(C)nc2cc1OCCN1CCOCC1
endpoint.unit: µM
TGI: 4.24

Source of measurements: ChEMBL document CHEMBL5113398
